Test system: large crabgrass (Digitaria sanguinalis, DIGSA)
Test: Post-emerge greenhouse herbicide test, phytotoxicity rating
Assay type: in vivo
Details: 500 g al/ha, 14 days after application
In this section, each of the compounds is paired with its reported DIGSA phytotoxicity rating (0-100).
Keep it simple and answer with nothing but the number.

For the compound Cn1c(C(F)(F)F)nc(-c2cc(Oc3ncccc3C(F)(F)F)c(Cl)cc2F)c1Cl [Compound 2-2] , what DIGSA phytotoxicity rating (0-100) is on record?
10

For the compound Cn1nc(-c2cc(Oc3ncccc3C(F)(F)F)c(Cl)cc2F)c(Cl)c1C(F)(F)F [Compound 1-2] , what DIGSA phytotoxicity rating (0-100) is on record?
50

New cases:
For the compound O=C1C2=CCCCN2C(=O)N1c1cc(Oc2ncccc2C(F)(F)F)c(Cl)cc1F [Compound 4-2] , what DIGSA phytotoxicity rating (0-100) is on record?
0

For the compound Cn1nc(-c2cc(Oc3cccc(F)n3)c(Cl)cc2F)c(Cl)c1C(F)(F)F [Compound 1-5] , what DIGSA phytotoxicity rating (0-100) is on record?
99

For the compound O=c1cc2n(c(=O)n1-c1cc(Oc3ncccn3)c(Cl)cc1F)CCC2 [Compound 5-12] , what DIGSA phytotoxicity rating (0-100) is on record?
40

For the compound COc1nc(OC)nc(Oc2cc(-c3nc(C)n(C(F)F)c3Cl)c(F)cc2Cl)n1 [Compound 2-4] , what DIGSA phytotoxicity rating (0-100) is on record?
10

For the compound O=c1n(CCCF)nnn1-c1cc(Oc2ncccc2[N+](=O)[O-])c(Cl)cc1F [Compound 6-2] , what DIGSA phytotoxicity rating (0-100) is on record?
0

For the compound CCOC(=O)C(C)Oc1ccc(Oc2cc(-n3c(=O)n4n(c3=S)CCCC4)c(F)cc2Cl)cc1 (stereo not drawn) [Compound 8-11] , what DIGSA phytotoxicity rating (0-100) is on record?
90

For the compound CS(=O)(=O)Nc1ccc(Oc2cc(-n3c(=O)cc4n(c3=O)CCC4)c(F)cc2Cl)cc1 [Compound 5-5] , what DIGSA phytotoxicity rating (0-100) is on record?
0

For the compound O=c1sc(=Nc2cc(Oc3ncccc3C(F)(F)F)c(Cl)cc2F)n2n1CCCC2 [Compound 7-1] , what DIGSA phytotoxicity rating (0-100) is on record?
60

For the compound O=c1sc(=Nc2cc(Oc3ncccn3)c(Cl)cc2F)n2n1CCCC2 [Compound 7-2] , what DIGSA phytotoxicity rating (0-100) is on record?
85

For the compound Cn1c(C(F)(F)F)nc(-c2cc(Oc3ncccc3[N+](=O)[O-])c(Cl)cc2F)c1Cl [Compound 2-1] , what DIGSA phytotoxicity rating (0-100) is on record?
20

For the compound COc1nc(OC)nc(Oc2cc(-c3nn(C)c(C(F)(F)F)c3Cl)c(F)cc2Cl)n1 [Compound 1-8] , what DIGSA phytotoxicity rating (0-100) is on record?
20

For the compound O=c1n(CCCF)nnn1-c1cc(Oc2ncc(Br)cn2)c(Cl)cc1F [Compound 6-16] , what DIGSA phytotoxicity rating (0-100) is on record?
0

For the compound Nc1ccc(Oc2cc(-n3c(=O)n4n(c3=S)CCCC4)c(F)cc2Cl)cc1 [Compound 8-9] , what DIGSA phytotoxicity rating (0-100) is on record?
10

For the compound Cn1nc(-c2cc(Oc3ncccc3C#N)c(Cl)cc2F)c(Cl)c1C(F)(F)F [Compound 1-3] , what DIGSA phytotoxicity rating (0-100) is on record?
80

For the compound N#Cc1cccnc1Oc1cc(-n2nnn(CCCF)c2=O)c(F)cc1Cl [Compound 6-4] , what DIGSA phytotoxicity rating (0-100) is on record?
0

For the compound N#Cc1cccnc1Oc1cc(-n2nnn(CCCF)c2=O)c(Cl)cc1Cl [Compound 6-5] , what DIGSA phytotoxicity rating (0-100) is on record?
10

For the compound O=c1n(-c2cc(Oc3ccccc3[N+](=O)[O-])c(Cl)cc2F)c(=S)n2n1CCCC2 [Compound 8-6] , what DIGSA phytotoxicity rating (0-100) is on record?
30

For the compound Cc1nn(-c2cc(Oc3ncccn3)c(Cl)cc2F)c(=O)n1C(F)F [Compound 3-1] , what DIGSA phytotoxicity rating (0-100) is on record?
100
